# Test system: differentiated 3T3-L1 adipocytes
# test: Glucose transport assay (2-deoxy-D-glucose uptake)
# Assay type: cell-based
# details: Mus musculus, 50 μM compound alone, 48 hr, read-out: Fold Stimulation (50 μM) of 2-deoxy-D-glucose uptake, Compound only
readout: fold induction at 50 µM
Give bare numbers.

Please review the following examples before continuing.
>  <molecule>
Cc1oc(-c2ccccc2)nc1CCOc1ccc2c(c1)OCC(C(=O)O)C2 (stereo not shown) [Example 1]

>  <resultNumber>
1.3

$$$$
>  <molecule>
Cc1oc(-c2ccccc2)nc1CCOc1ccc2c(c1)OCC(CC(=O)O)C2 (stereo not shown) [Example 14]

>  <resultNumber>
1.4

$$$$
>  <molecule>
Cc1oc(-c2ccccc2)nc1COc1ccc2c(c1)OCC(C(=O)O)C2 (stereo not shown) [Example 6]

>  <resultNumber>
1.4

$$$$
>  <molecule>
Cc1oc(-c2ccccc2)nc1CCOc1ccc2c(c1)OCC(C(=O)NS(C)(=O)=O)C2 (stereo not shown) [Example 9]

>  <resultNumber>
1.2

$$$$
>  <molecule>
O=C(O)C1COc2cc(OCCc3nc(-c4ccccc4)oc3-c3ccccc3)ccc2C1 (stereo not shown) [Example 5]

>  <resultNumber>
1.7

$$$$
>  <molecule>
Cc1oc(-c2ccccc2)nc1CCCOc1ccc2c(c1)OCC(C(=O)O)C2 (stereo not shown) [Example 7]

>  <resultNumber>
1.4

$$$$
>  <molecule>
CCc1ccc(CCOc2ccc(CC3SC(=O)NC3=O)cc2)nc1 (stereo not shown) [Pioglitazone, reference compound]

>  <resultNumber>
1.9

$$$$
>  <molecule>
Cc1oc(-c2cccs2)nc1CCOc1ccc2c(c1)OCC(C(=O)O)C2 (stereo not shown) [Example 4]

>  <resultNumber>
1.5

$$$$

// for each molecule in input: emit fold induction at 50 µM
1. Cc1oc(-c2ccc(-c3ccccc3)cc2)nc1COc1ccc2c(c1)OCC(C(=O)O)C2 (stereo not shown) [Example 11]
2. Cc1oc(-c2ccc(-c3ccccc3)cc2)nc1CCOc1ccc2c(c1)OCC(C(=O)O)C2 (stereo not shown) [Example 2]
3. Cc1oc(-c2ccccc2)nc1CCOc1ccc2c(c1)OCC(C(N)=O)C2 (stereo not shown) [Example 13]
4. Cc1oc(-c2ccccc2)nc1CCOc1ccc2c(c1)OCC(C(=O)NS(=O)(=O)c1ccccc1)C2 (stereo not shown) [Example 8]
5. Cc1oc(-c2ccc(Br)cc2)nc1COc1ccc2c(c1)OCC(C(=O)O)C2 (stereo not shown) [Example 10]

A:
1: 1.3; 2: 1.5; 3: 1.7; 4: 1.5; 5: 1
